# Procedure summary: recombinant UMI read abundance after kanamycin selection (control-corrected) (log10(CPM+1)); higher = more efficient recombination; extreme values may be limits of the assay; sequences stand for … in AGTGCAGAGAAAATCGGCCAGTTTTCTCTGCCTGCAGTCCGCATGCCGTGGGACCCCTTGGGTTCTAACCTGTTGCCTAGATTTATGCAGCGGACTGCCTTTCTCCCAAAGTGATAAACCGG…AGGTTGGTTTCACT; site = the 11-nt donor;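 further: IS621 bridge recombinase in Escherichia coli cells against a fixed T5 target plasmid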
Experimental endpoint: recombinant UMI read abundance (log10)
Please reply with the number alone, leaving off any unit.

Query :: Please give the measured recombinant UMI read abundance (log10) for this sequence: ACACATGCATGGACCGGTTTTCCCGGTAATCCGTATTTGAC (site ACACATGCTGT)
Result :: 2.6

Query :: Ok, now CATCCAACATGGACCGGTTTTCCCGGTAATCCGTATTTGTC (site CATCCAACTGA)
Result :: 2.17

Query :: Ok, now TCCTACTCATGGACCGGTTTTCCCGGTAATCCGTATTTGCA (site TCCTACTCTTG)
Result :: 0
